This collection of values is drawn from ChEMBL document CHEMBL3797197.

Molecular target: Disks large homolog 4 (Homo sapiens)
Test: Displacement of Cy5-GluN2B from N-terminal His-tagged full length human PSD-95alpha PDZ2 domain (155 to 249 residues) without exon 4b expressed in Escherichia coli BL21(DE3)pLysS by fluorescence polarization assay
Residues, ends and D or L forms follow the SMILES beside them.
assayEndpoint: pKi
Answers are plain numbers, as −log10 of the molar value.

CC(C)[C@H](NC(=O)[C@H](C)NC(=O)[C@@H](N)CO)C(=O)O (H-Ser-Ala-Val-OH) : 3.64

Provide each entry's pKi from the list below.
1. Cc1c(C(=O)O)[nH]c2cc(C(=O)O)c(O)cc12
2. CC(C)[C@H](NC(=O)[C@H](C)NC(=O)[C@@H](N)[C@@H](C)O)C(=O)O (H-Thr-Ala-Val-OH)
3. CC(C)[C@H](NC(=O)[C@H](C)n1cc([C@@H](N)[C@@H](C)O)nn1)C(=O)O

1: 3.28; 2: 4.42; 3: 3.54

====

Target: Disks large homolog 4 (Homo sapiens, UniProt P78352)
Sequence (P78352 whole entry, the tested form may be a part): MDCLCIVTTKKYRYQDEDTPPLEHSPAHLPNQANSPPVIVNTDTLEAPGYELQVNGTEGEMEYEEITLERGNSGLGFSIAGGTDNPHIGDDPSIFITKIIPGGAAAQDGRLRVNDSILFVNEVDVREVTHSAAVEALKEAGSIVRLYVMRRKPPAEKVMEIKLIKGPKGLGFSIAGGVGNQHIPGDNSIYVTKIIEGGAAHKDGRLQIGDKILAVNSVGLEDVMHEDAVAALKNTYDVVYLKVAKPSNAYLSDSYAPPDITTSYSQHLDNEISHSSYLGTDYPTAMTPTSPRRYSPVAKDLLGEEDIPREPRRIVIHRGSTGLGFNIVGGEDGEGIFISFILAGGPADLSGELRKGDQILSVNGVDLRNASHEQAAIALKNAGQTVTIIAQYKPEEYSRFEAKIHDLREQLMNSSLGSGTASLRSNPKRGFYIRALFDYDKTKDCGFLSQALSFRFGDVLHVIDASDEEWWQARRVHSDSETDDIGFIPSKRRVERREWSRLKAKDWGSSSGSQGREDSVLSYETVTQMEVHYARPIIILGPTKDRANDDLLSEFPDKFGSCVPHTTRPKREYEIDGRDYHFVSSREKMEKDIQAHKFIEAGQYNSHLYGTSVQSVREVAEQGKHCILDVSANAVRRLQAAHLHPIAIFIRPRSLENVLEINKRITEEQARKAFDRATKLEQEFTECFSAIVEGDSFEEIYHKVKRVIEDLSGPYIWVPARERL
Residues, ends and D or L forms follow the SMILES beside them.
assayEndpoint: Kd (µM)
One number for each entry, in µM.

// fetch Kd; item: CC(C)[C@H](NC(=O)[C@H](C)NC(=O)[C@@H](N)[C@@H](C)O)C(=O)O (H-Thr-Ala-Val-OH) ; system: Disks large homolog 4 (Homo sapiens, UniProt P78352) 101

====

Target: Disks large homolog 4 (Rattus norvegicus)
Sequence (P31016 whole entry, the tested form may be a part): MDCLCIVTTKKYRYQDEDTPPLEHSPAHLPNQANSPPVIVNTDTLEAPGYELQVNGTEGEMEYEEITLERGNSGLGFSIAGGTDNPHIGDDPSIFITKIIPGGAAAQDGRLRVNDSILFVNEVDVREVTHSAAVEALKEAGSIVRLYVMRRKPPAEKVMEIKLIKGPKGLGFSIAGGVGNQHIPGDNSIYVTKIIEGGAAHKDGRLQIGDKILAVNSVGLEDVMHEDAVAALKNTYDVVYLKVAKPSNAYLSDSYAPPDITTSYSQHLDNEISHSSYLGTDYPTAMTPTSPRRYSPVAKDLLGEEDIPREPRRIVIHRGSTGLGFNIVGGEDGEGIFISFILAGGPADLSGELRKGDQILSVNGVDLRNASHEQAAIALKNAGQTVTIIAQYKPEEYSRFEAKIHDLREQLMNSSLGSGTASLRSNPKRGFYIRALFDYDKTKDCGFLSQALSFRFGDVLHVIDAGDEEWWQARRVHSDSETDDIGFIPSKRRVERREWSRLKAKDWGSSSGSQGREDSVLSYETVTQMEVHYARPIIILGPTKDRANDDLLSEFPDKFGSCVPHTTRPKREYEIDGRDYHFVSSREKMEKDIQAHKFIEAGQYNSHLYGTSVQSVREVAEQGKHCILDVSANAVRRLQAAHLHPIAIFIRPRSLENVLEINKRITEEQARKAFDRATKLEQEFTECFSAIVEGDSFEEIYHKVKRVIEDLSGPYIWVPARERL
Test: Inhibition of rat PSD-95 PDZ1 domain interaction with mouse 5HT2A receptor after 18 hrs by pull down assay
assayEndpoint: IC50 (µM)
Give bare numbers, in µM.

Tell me IC50 reported for "Cc1c(C(=O)O)n(CCCC(=O)O)c2cc(C(=O)O)c(OCc3ccccc3)cc12" 190

====

Target: Disks large homolog 4 (Homo sapiens, UniProt P78352)
Experiment: Displacement of Cy5-GluN2B from N-terminal His-tagged human full length PSD-95alpha PDZ1 domain (61 to 151 residues) without exon 4b expressed in Escherichia coli BL21(DE3)pLysS by fluorescence polarization assay
Residues, ends and D or L forms follow the SMILES beside them.
Task for the reader: assign each of the following compounds its reported Ki.
Give bare numbers, in µM.

CC(C)[C@H](NC(=O)[C@H](C)NC(=O)[C@@H](N)CO)C(=O)O (H-Ser-Ala-Val-OH) : 480

Kindly consider the entry below.
// fetch Ki; item: CC(C)[C@H](NC(=O)[C@H](C)NC(=O)[C@@H](N)[C@@H](C)O)C(=O)O (H-Thr-Ala-Val-OH) ; system: Disks large homolog 4 (Homo sapiens, UniProt P78352) 74

====

Target: Disks large homolog 4 (Homo sapiens, UniProt P78352)
Test: Displacement of Cy5-GluN2B from N-terminal His-tagged full length human PSD-95alpha PDZ2 domain (155 to 249 residues) without exon 4b expressed in Escherichia coli BL21(DE3)pLysS by fluorescence polarization assay
assayEndpoint: Ki

CC(C)[C@H](NC(=O)c1cn([C@H](C(=O)O)C(C)C)nn1)C(=O)O : > 500 µM
Cc1c(C(=O)O)n(CCCC(=O)O)c2cc(C(=O)O)c(OCc3ccccc3)cc12 : > 500 µM

Kindly consider the entry below.
Tell me Ki reported for "CC(C)[C@@H](C(=O)O)n1cc([C@H](C)NC(=O)[C@@H](N)[C@@H](C)O)nn1" > 500 µM
